# TESTED SYSTEM: T1, Dpo4 (DNA polymerase IV) (Sulfolobus solfataricus, UniProt Q97W02 1-352)
# T1 sequence: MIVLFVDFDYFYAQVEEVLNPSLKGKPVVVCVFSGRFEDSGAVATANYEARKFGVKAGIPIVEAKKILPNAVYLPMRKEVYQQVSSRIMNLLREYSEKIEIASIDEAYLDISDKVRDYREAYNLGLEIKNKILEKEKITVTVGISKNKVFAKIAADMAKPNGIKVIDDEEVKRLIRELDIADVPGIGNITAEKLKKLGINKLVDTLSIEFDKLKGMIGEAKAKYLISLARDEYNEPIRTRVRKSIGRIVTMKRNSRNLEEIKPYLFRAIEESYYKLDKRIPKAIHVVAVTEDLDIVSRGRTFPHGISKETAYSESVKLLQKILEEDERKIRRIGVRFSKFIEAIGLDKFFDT
# ASSAY TEXT: EMSA
READOUT KIND: Kd (nM)
// return numeric value only (unit: nM, not printed)

{"BINDER": "25-mer/44CTL (dsDNA) DNA 1: GTCCCTGTTCGGGCGCCAGGAGACC DNA 2: GATCACGAGACTAGCCTCTGGTCTCCTGGCGCCCGAACAGGGAC", "OBSERVED RESULT": 5}
{"BINDER": "24-mer/44DDP (dsDNA, cisplatin-d(GpG) intrastrand cross-link at template G20-G21) DNA 1: GTCCCTGTTCGGGCGCCAGGAGAC DNA 2: GATCACGAGACTAGCCTCTGGTCTCCTGGCGCCCGAACAGGGAC", "OBSERVED RESULT": 26}
{"BINDER": "27-mer/44CTL (dsDNA) DNA 1: GTCCCTGTTCGGGCGCCAGGAGACCAG DNA 2: GATCACGAGACTAGCCTCTGGTCTCCTGGCGCCCGAACAGGGAC", "OBSERVED RESULT": 13}
{"BINDER": "23-mer/44DDP (dsDNA, cisplatin-d(GpG) intrastrand cross-link at template G20-G21) DNA 1: GTCCCTGTTCGGGCGCCAGGAGA DNA 2: GATCACGAGACTAGCCTCTGGTCTCCTGGCGCCCGAACAGGGAC", "OBSERVED RESULT": 56}
{"BINDER": "24-mer/44CTL (dsDNA) DNA 1: GTCCCTGTTCGGGCGCCAGGAGAC DNA 2: GATCACGAGACTAGCCTCTGGTCTCCTGGCGCCCGAACAGGGAC", "OBSERVED RESULT": 8}
{"BINDER": "26-mer/44CTL (dsDNA) DNA 1: GTCCCTGTTCGGGCGCCAGGAGACCA DNA 2: GATCACGAGACTAGCCTCTGGTCTCCTGGCGCCCGAACAGGGAC", "OBSERVED RESULT": 11}
{"BINDER": "23-mer/44CTL (dsDNA) DNA 1: GTCCCTGTTCGGGCGCCAGGAGA DNA 2: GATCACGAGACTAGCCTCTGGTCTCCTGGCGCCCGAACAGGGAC", "OBSERVED RESULT": 17}
{"BINDER": "22-mer/44CTL (dsDNA) DNA 1: GTCCCTGTTCGGGCGCCAGGAG DNA 2: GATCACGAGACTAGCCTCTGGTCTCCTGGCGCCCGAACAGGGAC", "OBSERVED RESULT": 16}

Please look up its Kd: 27-mer/44DDP (dsDNA, cisplatin-d(GpG) intrastrand cross-link at template G20-G21) DNA 1: GTCCCTGTTCGGGCGCCAGGAGACCAG DNA 2: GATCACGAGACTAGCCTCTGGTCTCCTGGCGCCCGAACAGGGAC
17

Try this binder too: 22-mer/44DDP (dsDNA, cisplatin-d(GpG) intrastrand cross-link at template G20-G21) DNA 1: GTCCCTGTTCGGGCGCCAGGAG DNA 2: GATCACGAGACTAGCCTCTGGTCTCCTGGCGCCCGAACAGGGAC
21
